tested on: Cryptococcus neoformans; details: Concentration 20 uM; ASSAY_TEST Inhibition of Fungal Growth; detection method Resazurin; Absorption (OD600-OD570); plate type 384well; NBS; CORNING #3640
Description: Antifungal activity against Cryptococcus neoformans H99 ATCC 208821 (CO-ADD:FG_002); MIC in YNB media using NBS plates, by Resazurin OD(600-570)
Measured potencies and affinities stand elsewhere.
Catalogue of Inhibition values
readoutName: Inhibition (%)

>>> print(df.to_string())
                                    compound       experimentalsystem  readoutname  observed
 0  O=C(OCC1CCC=CO1)C1CCC=CO1 (configuration not stated)  Cryptococcus neoformans   Inhibition     -9.47
 1  CCOC(=O)C1CC(=O)c2cc(OC)c(OC)cc2C1 (configuration not stated)  Cryptococcus neoformans   Inhibition    -12.53
 2              COC(=O)Cc1[nH]c(S)nc1C(=O)OC  Cryptococcus neoformans   Inhibition     19.86
 3   CCOC(=O)Nc1cc2c(c(N)n1)N=C(c1ccccc1)CN2  Cryptococcus neoformans   Inhibition     -8.89
 4                Nc1ccccc1-c1nc2cnccc2[nH]1  Cryptococcus neoformans   Inhibition     -6.41
 5   O=c1[nH]c(=S)c2nc(S)n(-c3ccccc3)c2[nH]1  Cryptococcus neoformans   Inhibition     -6.47
 6               CCCCN1C(=O)CC(C(=O)OCC)=C1C  Cryptococcus neoformans   Inhibition     -4.18
 7  Oc1c(Cl)cc(Cl)cc1C1Nc2ccccc2-n2cccc21 (configuration not stated)  Cryptococcus neoformans   Inhibition     -0.72
 8                    CN(C)Cc1c[nH]c2nccnc12  Cryptococcus neoformans   Inhibition      2.55
 9                   Cc1ccc2nc(Cl)cc(=O)n2c1  Cryptococcus neoformans   Inhibition      9.92
10  CCCN(CCC)c1ccc(/C=C/c2ccc3cc(OCC)ccc3n2)cc1  Cryptococcus neoformans   Inhibition     -5.04
11              O=C(Nc1cccc2ccccc12)c1ccccc1  Cryptococcus neoformans   Inhibition     -4.91
12  Cc1c2cnccc2c(C)c2c1c1ccccc1n2CCOC(=O)c1ccccc1  Cryptococcus neoformans   Inhibition    -19.42
13          O=C(Nc1ccc(Cl)cc1)Nc1cccc2nsnc12  Cryptococcus neoformans   Inhibition     -2.68
14    Cc1ccc2c(c1)c1ccc3c(c1n2C)C(=O)C=CC3=O  Cryptococcus neoformans   Inhibition     22.59
15      CCOC(=O)N1CCN(Cc2c(O)ccc3ccccc23)CC1  Cryptococcus neoformans   Inhibition     -5.96
16               Oc1nc(S)ncc1Oc1ccc(Cl)cc1Cl  Cryptococcus neoformans   Inhibition     -6.95
17  CC1=CC(C)(C(Cl)(Cl)Cl)C(C)=C/C1=N/O (configuration not stated)  Cryptococcus neoformans   Inhibition    -11.97
18  COc1ccn(C2CCCCO2)c(=O)n1 (configuration not stated)  Cryptococcus neoformans   Inhibition      -5.3
19                  CCCCSc1nc(O)cc(C(=O)O)n1  Cryptococcus neoformans   Inhibition     -8.23
20  Nc1ncnc2c1ncn2C1OC(CO)C(O)C1N (configuration not stated)  Cryptococcus neoformans   Inhibition     -5.11
21  Cc1cc2cc3c(=O)[nH]c(=O)cc-3n(CC(O)C(O)C(O)CO)c2cc1C (configuration not stated)  Cryptococcus neoformans   Inhibition     -7.62
22                         Nc1cc(O)nc2ncnn12  Cryptococcus neoformans   Inhibition     -4.53
23    NC(=O)c1nnsc1-c1ccc(-c2snnc2C(N)=O)cc1  Cryptococcus neoformans   Inhibition    -13.62
24                   Nc1ccc(C(=O)c2cccs2)cn1  Cryptococcus neoformans   Inhibition     -0.14
25          COc1cccc(/C=C2\CCc3ccccc3C2=O)c1  Cryptococcus neoformans   Inhibition    -15.01
26            C=CCNC(=S)N1CCN(c2ccccc2Cl)CC1  Cryptococcus neoformans   Inhibition     -0.57

====

test system: Acinetobacter baumannii; assay: Antibacterial activity against Acinetobacter baumannii ATCC 19606 (CO-ADD:GN_034); MIC in CAMBH media using NBS plates, by Resazurin F(560/590); format: functional; settings: Concentration 20 uM, ASSAY_TEST Inhibition of Bacterial Growth, detection method Resazurin, Fluorescence (ex560/em590), MEDIA CAMHB, plate type 384well, CORNING #3640, time 18 hr
readoutName: Inhibition (%)

In [3]: df
Out[3]:
                                    compound       experimentalsystem  observed
 0                   Cc1c(CCO)c(=O)n2n1CCCC2  Acinetobacter baumannii     -6.34
 1  Cc1nc(Nc2ccc(F)cc2)nc(Nc2ccc(F)cc2)c1[N+](=O)[O-]  Acinetobacter baumannii      5.04
 2         CCOC(=O)Nc1ccc2nc(N3CCCCCC3)sc2c1  Acinetobacter baumannii     14.56
 3  O=[N+]([O-])C1C(c2ccccc2)C12c1ccccc1-c1ccccc12 (configuration not stated)  Acinetobacter baumannii     -9.94
 4  CC1CCC(C(C)C)C(NC(=O)c2ccncc2)C1 (configuration not stated)  Acinetobacter baumannii    -17.65
 5                     Nc1ncnc2c1ncn2C=C=CCO  Acinetobacter baumannii      8.12
 6  CS/C(=C\c1ccc(C(=O)c2ccc(C)cc2)n1C)[S+](C)[O-] (configuration not stated)  Acinetobacter baumannii      7.53
 7         CCOC(=O)c1[nH]c(CO)c(C(=O)OCC)c1C  Acinetobacter baumannii     11.05
 8  CCOP(=O)(OCC)/C(C#N)=C/c1ccc([N+](=O)[O-])cc1  Acinetobacter baumannii     12.51
 9  c1cc2c3c(cccc3c1)NC1(CCC3(CC1)Nc1cccc4cccc(c14)N3)N2  Acinetobacter baumannii         7
10  CN(C)c1ccc(/C=C2/C=C(c3ccc4c(c3)CCCC4)OC2=O)cc1  Acinetobacter baumannii     -7.24
11  COC1OC(CO)C(N=C(C)C)C1O (configuration not stated)  Acinetobacter baumannii       -14

====

tested on: Candida albicans; details: 20 µM
Description: Antifungal activity against Candida albicans ATCC 90028 (CO-ADD:FG_001); MIC in YNB media using NBS plates, by OD630
Potency and affinity values are given separately.
Each record here notes measured Inhibition.
readoutName: Inhibition (%)

In [3]: df
Out[3]:
                                    compound  readoutname  observed
 0               O=C(Oc1cccnc1O)c1cccc(Cl)c1   Inhibition      13.4
 1  CC1=CN2C(c3cccc([N+](=O)[O-])c3)=NON(c3ccc(C)cn3)C2C=C1 (configuration not stated)   Inhibition      17.2
 2            Oc1ccc(Nc2ccnc3cc(Cl)ccc23)cc1   Inhibition      0.86
 3               Cc1ccc(C)c(C(=O)CCC(=O)O)c1   Inhibition         8
 4  N#CC1=C(Nc2ccccc2Cl)SC(c2ccncc2)NC1=O (configuration not stated)   Inhibition      4.49
 5                   CN(C)S(=O)(=O)Nc1ccccn1   Inhibition      5.95
 6         CCOc1ccc(/C=C2\CCc3ccccc3C2=O)cc1   Inhibition      5.43
 7  Cc1ccc(Nc2nnc(-c3ccc4c(c3)OCO4)o2)c(C)c1   Inhibition      28.8
 8                         CCC(CC)c1ncc[nH]1   Inhibition     -1.38
 9  O=C1NC(=O)C2(CCc3ccccc32)N1 (configuration not stated)   Inhibition      4.28
10  Cc1cccc(N2CCN(CC(O)COc3ccc(Cl)cc3)CC2)c1 (configuration not stated)   Inhibition      0.39
11           CSc1nc(O)c(Nc2cccc(Cl)c2)c(O)n1   Inhibition         0
12                  Cc1nc(S)nc(O)c1CCC1OCCO1   Inhibition     -0.82
13          CCN(CC)C(=O)Cn1ccc(NC(C)=O)nc1=O   Inhibition      0.38
14                 Oc1ccc2c(ccc3[nH]cnc32)c1   Inhibition     -0.43
15              Cc1cc(NC(=O)c2ccccc2)nc(C)n1   Inhibition      0.88
16       CCOC(=O)CSc1nc2nc(Cl)c(Cl)[nH]c-2n1   Inhibition      0.89
17  COC(=O)c1cc(C)nc2c(C)cc3[nH]c4ccccc4c3c12   Inhibition      8.78
18  COc1cc2c(cc1OC)C(C1(O)CCCCC1)NCC2 (configuration not stated)   Inhibition     -2.01
19  C=CCC(CC)C(=O)NC(=O)N1CCCc2ccccc21 (configuration not stated)   Inhibition      4.92
20                  ON=C(NCc1ccccc1)c1ccccc1   Inhibition     -0.43
21  O=C1c2ccccc2C(O)(c2ccccc2)N1c1ccncc1 (configuration not stated)   Inhibition      2.44
22  O=C1CSC(c2cccs2)N1c1nncs1 (configuration not stated)   Inhibition     -0.07
23  CC1OC1c1ccc(-c2ccc(C3OC3C)cc2)cc1 (configuration not stated)   Inhibition      7.55
24          COc1ccc(NC2=CC(=S)NC(C)(C)C2)cc1   Inhibition      2.09
25                       Clc1[nH]cnc2nccc1-2   Inhibition      1.22
26  CCCOc1ccc(-c2nc(-c3ccc([N+](=O)[O-])cc3)cs2)cc1   Inhibition      5.94

Origin of measurements: ChEMBL document CHEMBL4296182
